system: Bacillus subtilis; experiment: cleaved RNA product abundance (RNA/gDNA barcode ratio) relative to median wild-type variant (ratio to wild type); higher = more accumulation of the downstream cleavage product; conditions: experiment (reporter, strain, medium): exp 4a: truncated aprE reporter, strain BJT201 with 2% xylose (RNase J1 expressed); cleavage site: cggR-gapA (positions -7 to +36 mutated)
Quantity Name: cleaved RNA product abundance
Number only, please.

Previously resolved entries follow.
| Residue String | cleaved RNA product abundance |
| --- | --- |
| ACAGACGAAGGAGCCGCAAACAAGTTATTAAGGGATGAATAATCACTCAATATAAATATCTCTCACTTATTTAAA | 0.127 |
| ACAGACGAAGGAGCCGCAAAGAAGTTATTAAGGGATCAATAGTCCCTCAATATAAATATCTCTCACTTATTTAAA | 0.828 |
| ACAGACGAAGGAGCCGCAAAGAAATTATTAAGGGACGAATAATCCCTCAATATAAATATCTCTCACTTATTTAAA | 0.596 |

Query: Return reported cleaved RNA product abundance. Input sequence: `ACAGACGAAGGAGCCGCAAAGAAGTTATTAAGTGACGAATAATCCCTCAATATAAATATCTCTCACTTATTTAAA`
Reply: 0.0518

Query: Return reported cleaved RNA product abundance. Input sequence: `ACAGACGAAGGAGCCGCAAACAAGGTATTAAGGGATGAATAATCCCTCAATATAAATATCTCTCACTTATTTAAA`
Reply: 1.23

Query: Return reported cleaved RNA product abundance. Input sequence: `ACAGACGAAGGAGCCGCAAAGAATTTATTAATGGATGAATAATCCCTCAATATAAATATCTCTCACTTATTTAAA`
Reply: 0.111

Query: Return reported cleaved RNA product abundance. Input sequence: `ACAGACGAAGGAGCCGCAAAGAAGTTATTAAGGAATGAATAATCCCCCAATATAAATATCTCTCACTTATTTAAA`
Reply: 0.115

Query: Return reported cleaved RNA product abundance. Input sequence: `ACAGACGAAGGAGCCGCAAAGAAGTTAATAAGGGATGAATAGTCCCTCAATATAAATATCTCTCACTTATTTAAA`
Reply: 0.263

Query: Return reported cleaved RNA product abundance. Input sequence: `ACAGACGAAGGAGCCGCAAAGAAGTTATTAAGGCATGAATAATCCCTCAATATAAAAATCTCTCACTTATTTAAA`
Reply: 0.0882

Query: Return reported cleaved RNA product abundance. Input sequence: `ACAGACGAAGGAGCCGCAAAGAAGTTATTAAGGGATGAATAATCACACAATATAAATATCTCTCACTTATTTAAA`
Reply: 0.142

Query: Return reported cleaved RNA product abundance. Input sequence: `ACAGACGAAGGAGCCGCAAAGAAGTTATTAAGGGATCAATAATCCCTCAATATAAATATCTCTCACTTATTTAAA`
Reply: 0.878

----------
system: Bacillus subtilis; assay: cleaved RNA product abundance (RNA/gDNA barcode ratio) relative to median wild-type variant (ratio to wild type); higher = more accumulation of the downstream cleavage product; settings: experiment (reporter, strain, medium): exp 2b: truncated aprE reporter, strain BJT200; cleavage site: cggR-gapA (positions -7 to +36 mutated)
Measured cleaved RNA product abundance of individual entries

Previously resolved entries follow.
| Residue String | Quantity Name | Observed Value |
| --- | --- | --- |
| ACAGACGAAGGAGCCGCAAAGAAGTTATTAAGGGATGAATCATCCCACAATATAAATATCTCTCACTTATTTAAA | cleaved RNA product abundance | 0.21 |
| ACAGACGAAGGAGCCGCAAAGAAGTTATTAAGGTATGAATAATCCCTCGATATAAATATCTCTCACTTATTTAAA | cleaved RNA product abundance | 0.0823 |
| ACAGACGAAGGAGCCGCAAAGAAGTTATTAAGGGATTAATAATCCCTCAATATAAATTTCTCTCACTTATTTAAA | cleaved RNA product abundance | 0.686 |

// next entry
Query: Return reported cleaved RNA product abundance. Input sequence: `ACAGACGAAGGAGCCGCAAAGAAGTTATTAAGGGATGAATAATCCCCTCAATATAAATATCTCTCACTTATTTAA`
Reply: 0.181

Where do these numbers come from? They come from the supplement of paper PMC11780869.
